# Tested on: Abutilon theophrasti
# PROCEDURE DETAILS: Herbicidal activity against velvetleaf assessed as seed germination at 1 mM after 4 days relative to control
# Assay type: functional
Provide the recorded Activity for the entries that follow.

[in] Please give the measured Activity for this compound: COc1ccc(/C=C/C=O)cc1
[out] 83%

[in] Please give the measured Activity for this compound: C/C=C/c1ccc(OC)cc1
[out] 98%

[in] Please give the measured Activity for this compound: OC/C=C/c1ccccc1
[out] 73%

[in] Please give the measured Activity for this compound: O=C(O)/C=C/c1ccccc1
[out] 100%

[in] Please give the measured Activity for this compound: COc1ccccc1/C=C/C=O
[out] 77%

[in] Please give the measured Activity for this compound: COc1ccc(/C=C/C(=O)O)cc1
[out] 107%

[in] Please give the measured Activity for this compound: O=C/C=C/c1ccccc1
[out] 57%
